assay: BET inhibitor-based combinations targeting novel dependencies in MECOM-rearranged (r) AML: OCI-AML3 cell line (AID 2202232); conditions: CellTiter-Glo luminescence, 48 h; OCI-AML3 viability; series mostly up to 46 µM; also: nearly all actives have a fitted effect of over 35% in size
Inconclusive results are not listed. Calls of active or inactive are those of the source. Calls follow the shape of the dose curve; as a rule, active = well fitted inhibition curve with a large enough effect; inconclusive = small, poorly fitted or top-dose-only effect; inactive = no such curve, though single readings can be large or run the other way.
// classify into 1 for active, -1 for inactive

[[record]]
smiles_code = "Cc1cc(I)ccc1Nc1c(C(=O)NOCC2CC2)cc(F)c(F)c1F"
discrete_label = 1

[[record]]
smiles_code = "NC(=S)N/N=C/c1ncccc1N"
discrete_label = 1

[[record]]
smiles_code = "COCCOc1cnc2ccn([C@H](C)c3nnc4c(F)cc(-c5cnn(C)c5)cn34)c(=O)c2c1"
discrete_label = -1


Kindly consider the entry below.
// query # outcome recorded in this test, key = COC1(c2sc3c(N4CCOCC4)nc(-c4cnc(N)nc4)nc3c2C)COC1
// result 1
